Biological target: T1, human LAG-3 on cells (HEK293-hLAG-3 stable cell line) (human, UniProt P18627 23-525)
T1 sequence: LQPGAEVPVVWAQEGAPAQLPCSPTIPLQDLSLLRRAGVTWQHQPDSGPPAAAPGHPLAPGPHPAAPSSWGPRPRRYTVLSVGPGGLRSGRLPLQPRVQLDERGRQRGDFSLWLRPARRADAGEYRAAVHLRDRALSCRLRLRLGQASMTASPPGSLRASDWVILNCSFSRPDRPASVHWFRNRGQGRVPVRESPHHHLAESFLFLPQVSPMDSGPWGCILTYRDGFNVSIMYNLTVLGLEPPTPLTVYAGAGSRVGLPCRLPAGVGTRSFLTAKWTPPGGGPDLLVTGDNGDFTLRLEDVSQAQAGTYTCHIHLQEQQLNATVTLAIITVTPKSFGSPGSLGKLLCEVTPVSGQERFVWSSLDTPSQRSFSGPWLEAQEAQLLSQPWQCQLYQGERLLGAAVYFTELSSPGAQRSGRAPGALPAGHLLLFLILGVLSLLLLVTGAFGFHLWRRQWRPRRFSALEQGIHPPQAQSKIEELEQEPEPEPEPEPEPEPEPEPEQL
Assay: cell-based or functional assay
reported-metric: IL-2 production, SEB-dependent PBMC stimulation test, 10 ug/ml, N = 1 (pg/mL)

binder	unit-spec	observed-measurement
105F1E10 mouse-human chimeric antibody (antibody, V domains shown, also called mAb009-105F1E10) VH: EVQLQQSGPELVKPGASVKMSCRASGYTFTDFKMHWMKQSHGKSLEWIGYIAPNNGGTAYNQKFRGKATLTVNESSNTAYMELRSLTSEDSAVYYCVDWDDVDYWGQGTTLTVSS VL: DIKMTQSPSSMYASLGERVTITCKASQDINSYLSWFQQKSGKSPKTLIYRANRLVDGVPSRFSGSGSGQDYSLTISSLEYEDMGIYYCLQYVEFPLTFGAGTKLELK	pg/mL	3740
405B8H3 mouse-human chimeric antibody (antibody, V domains shown, also called mAb103-405B8H3) VH: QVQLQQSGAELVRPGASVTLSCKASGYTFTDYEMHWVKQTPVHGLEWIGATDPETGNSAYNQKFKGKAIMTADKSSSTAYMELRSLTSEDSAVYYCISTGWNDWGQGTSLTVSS VL: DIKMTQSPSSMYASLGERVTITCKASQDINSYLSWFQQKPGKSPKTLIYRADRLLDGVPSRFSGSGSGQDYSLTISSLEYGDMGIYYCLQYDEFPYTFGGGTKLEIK	pg/mL	3280
409D4E10 mouse-human chimeric antibody (antibody, V domains shown, also called mAb112-409D4E10) VH: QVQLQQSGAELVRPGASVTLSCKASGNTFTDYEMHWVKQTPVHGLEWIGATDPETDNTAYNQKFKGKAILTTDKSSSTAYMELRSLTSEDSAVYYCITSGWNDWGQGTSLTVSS VL: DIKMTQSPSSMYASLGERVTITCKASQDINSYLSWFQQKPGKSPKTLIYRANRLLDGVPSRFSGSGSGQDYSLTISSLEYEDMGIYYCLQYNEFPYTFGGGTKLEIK	pg/mL	2740
